For each entry below, report its GI50 value.
system: NCI-H23 lung; test: NCI tumour cell line growth inhibition, 48 h

>  <compound>
Cc1ccc(Nc2cc(Cl)c([N+](=O)[O-])cc2[N+](=O)[O-])cc1

>  <result>
3.66 µM

$$$$
>  <compound>
N#Cc1cnc2cc(OC[C@@H](O)CO)c(NC(=O)C3CCCC3)cc2c1Nc1ccc(OCc2cccc(F)c2)c(Cl)c1

>  <result>
1.87 µM

$$$$
>  <compound>
O=S(=O)(NCCNc1nccc(-c2c(-c3ccc(F)c(O)c3)nc3sccn23)n1)c1ccc(Cl)cc1

>  <result>
3.56 µM

$$$$
>  <compound>
COc1ccc(/C(C)=N/NC(=O)CSc2nc3ccccc3c(=O)n2CCc2ccc(S(N)(=O)=O)cc2)cc1

>  <result>
2.3 µM

$$$$
>  <compound>
CC(C)(C)c1cc(C(=O)Nc2ccc(C(=O)NCCN)cc2)cc(C(C)(C)C)c1

>  <result>
3.19 µM

$$$$

Provide the reported GI50 of each entry below, same order.
1. Clc1ccc(C2CC(c3cccc(Nc4ccncc4)c3)=NN2c2ccc(Cl)cc2)cc1 (centres undefined)
2. CCCCCCCCCCCCCCCCCCNCc1ccc(Cl)cc1
3. O=C(Nc1cccc(-n2cc(-c3ccncc3)c(-c3ccc(O)c(Cl)c3)n2)c1)c1ccc2c(c1)OCCO2

# output
1.83 µM
3.07 µM
> 100 µM

# input GET /values?readout=GI50&system=NCI-H23 lung&item= COCCOCCOCc1n(Cc2ccc3ccccc3c2)c2ccccc2[n+]1Cc1ccc2ccccc2c1
# output 0.392 µM

Each recorded value in this set is attributed to PubChem BioAssay (NCI).
